- target_of_assay: 2-methylserotonin-induced contraction of the ileum (5-HT3 antagonism) (Cavia porcellus, UniProt O70212)
- Construct: from tissue; host or cells: isolated nonterminal ileum of male Hartley guinea pig
- Sequence (O70212 20-490): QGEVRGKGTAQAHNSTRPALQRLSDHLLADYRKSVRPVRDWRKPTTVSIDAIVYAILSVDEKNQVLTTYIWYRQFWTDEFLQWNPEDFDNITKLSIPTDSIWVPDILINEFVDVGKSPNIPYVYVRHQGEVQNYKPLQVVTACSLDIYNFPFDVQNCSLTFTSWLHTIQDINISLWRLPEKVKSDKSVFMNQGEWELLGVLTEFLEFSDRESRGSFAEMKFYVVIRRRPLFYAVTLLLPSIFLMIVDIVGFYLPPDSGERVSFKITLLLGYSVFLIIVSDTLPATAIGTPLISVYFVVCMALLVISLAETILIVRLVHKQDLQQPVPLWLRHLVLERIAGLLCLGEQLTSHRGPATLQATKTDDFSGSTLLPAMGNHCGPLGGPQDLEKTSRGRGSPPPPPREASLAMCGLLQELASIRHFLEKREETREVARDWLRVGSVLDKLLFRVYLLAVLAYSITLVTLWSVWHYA
- test_details: Antagonism against 2-methylserotonin-induced contraction or systole of ileum
- Assay type: cell-based, guinea pig (Hartley male)
- protocol_conditions: test compound added 30 minutes before 2-methylserotonin; nonterminal ileum, 37° C.; read-out: pA2 (converted)
Where a name gives a salt, the structure may show the parent alone.
Measured log10(Kb), listed per entry for reference.
Kindly note that the scale is log10 and the underlying Kb is in nM.

Examples with their reported log10(Kb) follow.
INSERT INTO measurements (compound, observed_measurement) VALUES
  ('CC#CC(C)Oc1cc(N)c(Cl)cc1C(=O)N[C@H]1C[C@H]2CC[C@@H](C1)N2C (single isomer, unassigned; (+)) [Example 36, hydrochloride]', 0.28),
  ('CN1[C@@H]2CC[C@H]1C[C@@H](NC(=O)c1cc(Cl)c(N)cc1OC1CCOCC1)C2 [Example 33, hydrochloride]', 0.79),
  ('CCC#CC(CC)Oc1cc(N)c(Cl)cc1C(=O)N[C@H]1C[C@H]2CC[C@@H](C1)N2C (stereo partly shown) [Example 25, hydrochloride]', -0.05),
  ('CCC#CCC(C)Oc1cc(N)c(Cl)cc1C(=O)N[C@H]1C[C@H]2CC[C@@H](C1)N2C (stereo partly shown) [Example 26, hydrochloride]', -0.33),
  ('C#CC(CCC)Oc1cc(N)c(Cl)cc1C(=O)N[C@H]1C[C@H]2CC[C@@H](C1)N2C (stereo partly shown) [Example 29, hydrochloride]', -0.34),
  ('C#CCOc1cc(N)c(Cl)cc1C(=O)N[C@H]1C[C@H]2CC[C@@H](C1)N2C [Example 21, hydrochloride]', 0.54);

Using the record for CC(Oc1cc(N)c(Cl)cc1C(=O)N[C@H]1C[C@H]2CC[C@@H](C1)N2C)C1CCCC1 (stereo partly shown) [Example 32, hydrochloride] , report its log10(Kb).
-0.03
